ASSAY SYSTEM: T1, 4H2610-bH
T1 chain: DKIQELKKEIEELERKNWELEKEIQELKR
TEST DETAILS: two-hybrid library CCNG1;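 also: natural log of median RNA to DNA barcode read ratio; higher means stronger binding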
PROPERTY: interaction score

> print(dat)
                                     binder           property  measured.number
1  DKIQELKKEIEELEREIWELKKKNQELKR [4H2576-bH]  interaction score           -0.788
2  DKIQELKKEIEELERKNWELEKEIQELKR [4H2610-bH]  interaction score             1.39
3  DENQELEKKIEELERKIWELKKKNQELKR [4H1328-bH]  interaction score            0.958
4  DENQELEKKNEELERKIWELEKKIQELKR [4H1446-bH]  interaction score            0.669
5  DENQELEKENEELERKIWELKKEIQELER [4H1193-bH]  interaction score          -0.0229
6  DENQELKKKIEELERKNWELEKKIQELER [4H1845-bH]  interaction score           -0.549
7  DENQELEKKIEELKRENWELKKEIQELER [4H1369-bH]  interaction score            0.178
